Recorded EC50 values for a group of compounds are listed next.
Test system: MT4
Assay: Effective concentration required to achieve 50% protection of MT-4 cells against cytopathic effect of HIV-2 (8 days)
Type: functional, cell-based
Details: Homo sapiens, MT4, 192 h
Express the result in µM but write the number alone.

Some compounds with recorded EC50:
[[record]]
compound = "O=c1[nH]cnc2c1ncn2[C@H]1CC[C@@H](CO)O1 [DIDANOSINE]"
reported_measurement = 11

[[record]]
compound = "COC(=O)C(C)NP(=O)(OCC1CC(n2nnc3c(N)ncnc32)CO1)Oc1ccccc1 (stereo not given)"
reported_measurement = 105

[[record]]
compound = "Cc1cn([C@H]2C[C@H](N=[N+]=[N-])[C@@H](CO)O2)c(=O)[nH]c1=O [ZIDOVUDINE]"
reported_measurement = 0.04


# context switch: different compound, same EC50
For `Nc1ncnc2c1ncn2[C@H]1CO[C@@H](CO)C1` , what is its reported EC50?
32

###

Recorded Ratio values for a group of molecules are listed next.
Assay: Ratio of CC50 value that of EC50 value(HIV-1)
Assay type: functional
// response body must contain only the number

[[record]]
molecule = "COC(=O)C(C)NP(=O)(OCC1CC(n2nnc3c(N)ncnc32)CO1)Oc1ccccc1 (stereo not given)"
measurement_kind = "Ratio"
reported_measurement = 8.5


# context switch: different molecule, same Ratio
For COC(=O)C(C)NP(=O)(OCC1CC(n2cnc3c(N)ncnc32)CO1)Oc1ccccc1 (stereo not given) , what is its reported Ratio?
48

###

Test: Ratio of CC50 value that of EC50 value(HIV-2)
Type: functional
Recorded Ratio values for a group of molecules are listed next.
// response body must contain only the number

[[record]]
molecule = "COC(=O)C(C)NP(=O)(OCC1CC(n2nnc3c(N)ncnc32)CO1)Oc1ccccc1 (centres undefined)"
measurement_kind = "Ratio"
reported_measurement = 1.4


# context switch: different molecule, same Ratio
For COC(=O)C(C)NP(=O)(OCC1CC(n2cnc3c(N)ncnc32)CO1)Oc1ccccc1 (centres undefined) , what is its reported Ratio?
65

###

Tested on: MT4
Assay: Effective concentration required to achieve 50% protection of MT-4 cells against cytopathic effect of HIV-2 (8 days)
Format: functional, cell-based
Details: Homo sapiens, MT4, 192 h
pEC50: −log10 of the molar value.
measurement_kind: pEC50

Some molecules with recorded pEC50:
[[record]]
molecule = "Nc1ccnc2c1ncn2C1COC(CO)C1 (stereo unspecified)"
reported_measurement = "< 3.37"

[[record]]
molecule = "Nc1ccnc2c1nnn2C1COC(COP(=O)(OCC(Cl)(Cl)Cl)OCC(Cl)(Cl)Cl)C1 (stereo unspecified)"
reported_measurement = "< 4.00"

[[record]]
molecule = "Nc1ccnc2c1nnn2C1COC(CO)C1 (stereo unspecified)"
reported_measurement = "< 3.37"


For COC(=O)C(C)NP(=O)(OCC1CC(n2cnc3c(N)ncnc32)CO1)Oc1ccccc1 (stereo unspecified) , what is its reported pEC50?
7.40

For Nc1ncnc2c1nnn2C1COC(COP(=O)(OCC(Cl)(Cl)Cl)OCC(Cl)(Cl)Cl)C1 (stereo unspecified) , what is its reported pEC50?
< 4.04

For Nc1nccc2c1ncn2C1COC(CO)C1 (stereo unspecified) , what is its reported pEC50?
< 3.37

###

Recorded pEC50 values for a group of molecules are listed next.
System: MT4
Test: Effective concentration required to achieve 50% protection of MT-4 cells against cytopathic effect of HIV-2 (8 days)
Type: functional, cell-based
Details: Homo sapiens, MT4, 192 h
pEC50: −log10 of the molar value.

[[record]]
molecule = "Nc1ncnc2c1nnn2C1COC(CO)C1 (stereo unspecified)"
reported_measurement = "< 3.37"

[[record]]
molecule = "Nc1ccnc2c1ncn2C1COC(COP(=O)(OCC(Cl)(Cl)Cl)OCC(Cl)(Cl)Cl)C1 (stereo unspecified)"
reported_measurement = "< 4.00"

[[record]]
molecule = "Nc1nccc2c1nnn2C1COC(CO)C1 (stereo unspecified)"
reported_measurement = "< 3.37"


Requested read-out pEC50, target or system MT4, entry Nc1nccc2c1nnn2C1COC(COP(=O)(OCC(Cl)(Cl)Cl)OCC(Cl)(Cl)Cl)C1 (stereo unspecified)
< 3.76

Requested read-out pEC50, target or system MT4, entry Nc1ncnc2c1ncn2C1COC(COP(=O)(OCC(Cl)(Cl)Cl)OCC(Cl)(Cl)Cl)C1 (stereo unspecified)
< 3.76

Requested read-out pEC50, target or system MT4, entry Nc1nccc2c1ncn2C1COC(COP(=O)(OCC(Cl)(Cl)Cl)OCC(Cl)(Cl)Cl)C1 (stereo unspecified)
< 4.47

###

Test: Ratio of CC50 value that of EC50 value(HIV-1)
Type: functional
Recorded Ratio values for a group of molecules are listed next.

[[record]]
molecule = "O=c1[nH]cnc2c1ncn2[C@H]1CC[C@@H](CO)O1"
measurement_kind = "Ratio"
reported_measurement = "> 42"

[[record]]
molecule = "Nc1ncnc2c1ncn2C1COC(COP(=O)(OCC(Cl)(Cl)Cl)OCC(Cl)(Cl)Cl)C1 (stereo not drawn)"
measurement_kind = "Ratio"
reported_measurement = "> 2"


# context switch: different molecule, same Ratio
For `Nc1ncnc2c1ncn2[C@H]1CO[C@@H](CO)C1` , what is its reported Ratio?
> 20
